# Lookup of reported viability, T/C keyed by entry
system: KRAS PDC multicell spheroid viability; test: Anticancer human tumor 825966-067-R-J1-PDC patient-derived colon carcinoma cell line growth inhibition [KRAS2]; settings: second compound 0.1 µM; first compound 0.00316 µM; active compounds read low

compound	viability, T/C
CC(=O)Nc1cccc(-n2c(=O)n(C3CC3)c(=O)c3c(Nc4ccc(I)cc4F)n(C)c(=O)c(C)c32)c1 + COc1cc2nc(C)nc(NC(C)c3cc(N)cc(C(F)(F)F)c3)c2cc1OC1CCOC1	128%
CN(C)C/C=C/C(=O)Nc1cc2c(Nc3ccc(F)c(Cl)c3)ncnc2cc1O[C@H]1CCOC1 + C=CC(=O)N1CCN(c2nc(=O)n(-c3c(C)ccnc3C(C)C)c3nc(-c4c(O)cccc4F)c(F)cc23)C(C)C1	110%
Cn1ncnc1[C@H]1c2n[nH]c(=O)c3cc(F)cc(c23)N[C@@H]1c1ccc(F)cc1 + COc1cc2nc(C)nc(NC(C)c3cc(N)cc(C(F)(F)F)c3)c2cc1OC1CCOC1	90.6%
CC(C)n1nc(-c2ccc3oc(N)nc3c2)c2c(N)ncnc21 + C=CC(=O)N1CCN(c2nc(=O)n(-c3c(C)ccnc3C(C)C)c3nc(-c4c(O)cccc4F)c(F)cc23)C(C)C1	114%
CN(C)C/C=C/C(=O)Nc1cc2c(Nc3ccc(F)c(Cl)c3)ncnc2cc1O[C@H]1CCOC1 + CC1OCC2(CCN(c3cnc(Sc4ccnc(N)c4Cl)c(N)n3)CC2)C1N	126%

###

tested on: KRAS PDC multicell spheroid viability; assay: Anticancer human tumor 825966-067-R-J1-PDC cell line growth inhibition [KRAS2]; settings: second compound 10 µM; first compound 1 µM; active compounds read low;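 also: spheroids exposed to compounds for 7 days; 100% = DMSO vehicle control viability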
// NB: equality with 5% counts as Not fulfilled; only viability, T/C strictly below is Fulfilled

compound	targetSystem	group
COc1cc(Nc2ncc3c(n2)-c2ccc(Cl)cc2C(c2c(F)cccc2OC)=NC3)ccc1C(=O)O + C=CC(=O)N1CCN(c2nc(=O)n(-c3c(C)ccnc3C(C)C)c3nc(-c4c(O)cccc4F)c(F)cc23)C(C)C1	KRAS PDC multicell spheroid viability	Not fulfilled
COc1cc2nccc(Oc3ccc(NC(=O)C4(C(=O)Nc5ccc(F)cc5)CC4)cc3)c2cc1OC + CC1OCC2(CCN(c3cnc(Sc4ccnc(N)c4Cl)c(N)n3)CC2)C1N	KRAS PDC multicell spheroid viability	Not fulfilled
Cn1nccc1Nc1nccc(-c2cc3c(s2)C(C)(C)N(CCN2CCOCC2)C3=O)n1 + C=CC(=O)N1CCN(c2nc(=O)n(-c3c(C)ccnc3C(C)C)c3nc(-c4c(O)cccc4F)c(F)cc23)C(C)C1	KRAS PDC multicell spheroid viability	Not fulfilled
COc1cc(Nc2ncc3c(n2)-c2ccc(Cl)cc2C(c2c(F)cccc2OC)=NC3)ccc1C(=O)O + CNCc1ccccc1-c1csc(C(C)Nc2nc(C)nc3cc(OC)c(OC)cc23)c1	KRAS PDC multicell spheroid viability	Fulfilled
CCN1CCN(Cc2ccc(Nc3ncc(F)c(-c4cc(F)c5nc(C)n(C(C)C)c5c4)n3)nc2)CC1 + COc1cc2nc(C)nc(NC(C)c3cc(N)cc(C(F)(F)F)c3)c2cc1OC1CCOC1	KRAS PDC multicell spheroid viability	Fulfilled
CC(=O)OC12COC1CC(O)C1(C)C(=O)C(O)C3=C(C)C(OC(=O)C(O)C(NC(=O)OC(C)(C)C)c4ccccc4)CC(O)(C(OC(=O)c4ccccc4)C21)C3(C)C (stereo not given) + CC1OCC2(CCN(c3cnc(Sc4ccnc(N)c4Cl)c(N)n3)CC2)C1N	KRAS PDC multicell spheroid viability	Fulfilled
CCNC(=O)CC1N=C(c2ccc(Cl)cc2)c2cc(OC)ccc2-n2c(C)nnc21 (stereo not given) + COc1cc2nc(C)nc(NC(C)c3cc(N)cc(C(F)(F)F)c3)c2cc1OC1CCOC1	KRAS PDC multicell spheroid viability	Not fulfilled
O=C(c1cc(Cc2n[nH]c(=O)c3ccccc23)ccc1F)N1CCN(C(=O)C2CC2)CC1 + CNCc1ccccc1-c1csc(C(C)Nc2nc(C)nc3cc(OC)c(OC)cc23)c1	KRAS PDC multicell spheroid viability	Fulfilled
CC1COCCN1c1cc(-c2ccnn2C)c2ccnc(-c3ccn[nH]3)c2n1 (stereo not given) + C=CC(=O)N1CCN(c2nc(=O)n(-c3c(C)ccnc3C(C)C)c3nc(-c4c(O)cccc4F)c(F)cc23)C(C)C1	KRAS PDC multicell spheroid viability	Not fulfilled
COC(=O)c1ccc2c(C(=Nc3ccc(N(C)C(=O)CN4CCN(C)CC4)cc3)c3ccccc3)c(O)[nH]c2c1 + C=CC(=O)N1CCN(c2nc(=O)n(-c3c(C)ccnc3C(C)C)c3nc(-c4c(O)cccc4F)c(F)cc23)C(C)C1	KRAS PDC multicell spheroid viability	Not fulfilled
CCNC(=O)CC1N=C(c2ccc(Cl)cc2)c2cc(OC)ccc2-n2c(C)nnc21 (stereo not given) + C=CC(=O)N1CCN(c2nc(=O)n(-c3c(C)ccnc3C(C)C)c3nc(-c4c(O)cccc4F)c(F)cc23)C(C)C1	KRAS PDC multicell spheroid viability	Not fulfilled
CC(=O)OC12COC1CC(O)C1(C)C(=O)C(O)C3=C(C)C(OC(=O)C(O)C(NC(=O)OC(C)(C)C)c4ccccc4)CC(O)(C(OC(=O)c4ccccc4)C21)C3(C)C (stereo not given) + COc1cc2nc(C)nc(NC(C)c3cc(N)cc(C(F)(F)F)c3)c2cc1OC1CCOC1	KRAS PDC multicell spheroid viability	Not fulfilled
CC1COCCN1c1cc(-c2ccnn2C)c2ccnc(-c3ccn[nH]3)c2n1 (stereo not given) + CNCc1ccccc1-c1csc(C(C)Nc2nc(C)nc3cc(OC)c(OC)cc23)c1	KRAS PDC multicell spheroid viability	Fulfilled
CC1OCC2(CCN(c3cnc(Sc4ccnc(N)c4Cl)c(N)n3)CC2)C1N (stereo not given) + CNCc1ccccc1-c1csc(C(C)Nc2nc(C)nc3cc(OC)c(OC)cc23)c1	KRAS PDC multicell spheroid viability	Fulfilled
CCN1CCN(Cc2ccc(Nc3ncc(F)c(-c4cc(F)c5nc(C)n(C(C)C)c5c4)n3)nc2)CC1 + CC1OCC2(CCN(c3cnc(Sc4ccnc(N)c4Cl)c(N)n3)CC2)C1N	KRAS PDC multicell spheroid viability	Not fulfilled
CC1(C)CCC(CN2CCN(c3ccc(C(=O)NS(=O)(=O)c4ccc(NCC5CCOCC5)c([N+](=O)[O-])c4)c(Oc4cnc5[nH]ccc5c4)c3)CC2)=C(c2ccc(Cl)cc2)C1 + C=CC(=O)N1CCN(c2nc(=O)n(-c3c(C)ccnc3C(C)C)c3nc(-c4c(O)cccc4F)c(F)cc23)C(C)C1	KRAS PDC multicell spheroid viability	Not fulfilled
COc1cc2nccc(Oc3ccc(NC(=O)C4(C(=O)Nc5ccc(F)cc5)CC4)cc3)c2cc1OC + CNCc1ccccc1-c1csc(C(C)Nc2nc(C)nc3cc(OC)c(OC)cc23)c1	KRAS PDC multicell spheroid viability	Fulfilled
O=C(c1cc(Cc2n[nH]c(=O)c3ccccc23)ccc1F)N1CCN(C(=O)C2CC2)CC1 + COc1cc2nc(C)nc(NC(C)c3cc(N)cc(C(F)(F)F)c3)c2cc1OC1CCOC1	KRAS PDC multicell spheroid viability	Not fulfilled
CC1COCCN1c1cc(-c2ccnn2C)c2ccnc(-c3ccn[nH]3)c2n1 (stereo not given) + CC1OCC2(CCN(c3cnc(Sc4ccnc(N)c4Cl)c(N)n3)CC2)C1N	KRAS PDC multicell spheroid viability	Not fulfilled
O=C(c1cc(Cc2n[nH]c(=O)c3ccccc23)ccc1F)N1CCN(C(=O)C2CC2)CC1 + CC1OCC2(CCN(c3cnc(Sc4ccnc(N)c4Cl)c(N)n3)CC2)C1N	KRAS PDC multicell spheroid viability	Not fulfilled

Source of measurements: PubChem BioAssay AID1963865
